- experimentSummary: in vivo
- Design: species or system 394-NOD SCID mice
- testConditions: 394-NOD SCID, mouse, 1.1 MBq
*1 amine or outer side, *2 acyl side, *3 side chain or, on linkers, in order; H or OH if unused. Where a SMILES comes first, the peptide text is derived from it. [ ]: non-standard residue; d: D form. The star is where a group is joined. DOTA = O=C(O)CN1CCN(CC(=O)O)CCN(CC(=O)*)CCN(CC(=O)O)CC1; d(γGlu) = O=C(O)[C@@H](CCC(=O)[*:2])N[*:1]; 1Nal = N[C@@H](Cc1cccc2ccccc12)C(=O)O; NMeNle = CCCC[C@H](NC)C(=O)O; PEG4 = NCCOCCOCCOCCOCCC(=O)O
observedProperty: SUV at 1 h (SUV)
Numbers only, in SUV.

Reported SUV at 1 h, molecule CCCC[C@@H](C(=O)N[C@@H](CC(=O)O)C(=O)N[C@@H](Cc1cccc2ccccc12)C(N)=O)N(C)C(=O)[C@H](Cc1c[nH]c2ccccc12)NC(=O)CCOCCOCCOCCOCCNC(=O)CC[C@@H](NC(=O)CN1CCN(CC(=O)O)CCN(CC(=O)O)CCN(CC(=O)O)CC1)C(=O)O [[^68Ga]Ga-DOTA-CCK-66, metal not drawn] ({DOTA-d(γGlu)-PEG4}-W[NMeNle]D[1Nal]-NH2) : ____
2.02
